Assay: soluble on expression in E. coli; label from the status in PepcDB or PDB records

sequence.input	soluble on expression in E. coli
QRSTFGTKHMVFRTDQLIDGIERNVRITSEEVNAALPVPLLDRQDPGAILISGSSYTEPSEALQTMREAMTQEKFSGSVEIPLGIVRALLDLGFTDEAASWLEDLVPRLGNEWRHQWYSGVTSLLLDDYLTAQQHFNEVYNILPGESAPKLARAAVCEMLLQEKGLESTALLDPAVTVAAADIKGEGMSNIWRELTSDPATLRFKAIYLYALVWRTNPTTVSSAFGLARQLAAENQIDLAVSTLDRVPQNSTHRRMAELTAILHLLGDLSEARLRRAARRLEAIPTNEPRFLQIQIAIMNAALQWLRTGGEAANDPIFEYPFTQRGLRNGLSATLRQLARSAPSSHRYALVDVANQVRPMTWF	not soluble
MSLTQGSVIFTQNRPGLDEKIFKIYKFKTMSDERDEKGELLSDELRLKAFGKIVRSLSLDELLQLFNVLKGDMSFVGPRPLLVEYLPLYNKEQKLRHKVRPGITGWAQVNGRNAISWQKKFELDVYYVKNISFLLDLKIMFLTALKVLKRSGVSKEGHVTTEKFNGKNEGHHHHHH	not soluble

---

Experiment: soluble on expression in E. coli; label from the status in PepcDB or PDB records

sequence.input	soluble on expression in E. coli
MKMLEQLEKKLGYTFKDKSLLEKALTHVSYSKKEHYETLEFLGDALVNFFIVDLLVQYSPNKREGFLSPLKAYLISEEFFNLLAQKLELHKFIRIKRGKINETIIGDVFEALWAAVYIDSGRDANFTRELFYKLFKEDILSAIKEGRVKKDYKTILQEITQKRWKERPEYRLISVEGPHHKKKFIVEAKIKEYRTLGEGKSKKEAEQRAAEELIKLLEESE	soluble
RKEDHARLRALNGLLYKALTDLLCTPEVSQELYDLNVELSKVSLTPDFSACRAYWKTTLSAEQNAHMEAVLQRSAAHMRHLLMSQQTLRNVPPIVFVQDKGNAALAELDQLLAVAD	soluble
MSLSEAGHKFLAKLGKKRLRPGGKRATDWLIAEGGFSKEKRILEVACNRGTTAIELAQRFGCKITAVDMDAQALEVAKKSAGTAGVAHLISFERANAMKLPYQDASFDIVINEAMLTMQADQAKKKCVMEYLRVLKPGGLLLTHDVLLKEAKESIRQELSQAIHVNVGPLTQDGWEQVMIESGYCDVKALTGEMTLMKLSGMIYDEGLLGTLKICVNACKKENRKQFLTMYKMFAKNKQKLGFIAMASYKSSEGHHHHHH	soluble

---

Assay: soluble on expression in E. coli; label from the status in PepcDB or PDB records
test.readout: soluble on expression in E. coli

sequence.input	test.readout	reported.result
MSLYTINIIPRVLHFKQPAGTSRGSYTTRNVWYIHLSSIECPGRVGVGECAPLPKLSCDDLPDYEQVLRSACQRLEQTGELDIESLRGYPSILFGLETALRHYETQSWALWDTPFSRGEVGIPINGLIWMGSFDRMLQQIEVKMQAGYRCIKLKIGAINFEEELALLRHIRAHYSAREIELRVDANGAFSPADAMDKLNRLAELDLHSIEQPIRAGQWEEMARLAAESPLPIALDEELIGCNALERKRELLAAIHPRYIILKPSLHGGISGGNEWIAEAEKQHIGWWITSALESNIGLNAIAQWCATFRNPLPQGLGTGLLFTDNVEMPLEIRKDCLWFCKEGHHHHHH	soluble on expression in E. coli	soluble
SLKVNNLIAGALNLNSKDYKKSGKKVSFDKNNLFSSIFQAESVKEDKHFILLENGEFNLDLIKSMLDGINETGERLLSEPSRQNVIFYKKVISEFISIIISSSVCLKEQKGGNLGDPKRPKYRIIKIINDKLDKLAYSVLQNQMTQIKLLDSIEEIQGLLVNLLM	soluble on expression in E. coli	soluble
MTSYEEETDYRNVPRELLDNNIPMGRGMIKWAPFATLPEQFETIQQYIIDQNKITRPVLSDDQLAELNIRLHEALQYAQPVEVKFYNNGFVDSVRLTIYRIDAINYEIDGYVYNQQQRQKISIFDILDIVLLPLEHHHHHH	soluble on expression in E. coli	soluble
MMCSTVISQLGFECHPIGKTLRIISPFTYCDDGEHVGAFIREVNGRYLVSDRCDALMNMEARGISLTKKRLDEIRQLLLKEGAELNARGEIIAWATEKDVGAITSNIIRAGILASTLSLDWYQPVQAEKFESMVIDYLYHTELRDALSLRENVYGLSGHQITVPVTIKTDIPKYVFTSSVKHGGSWNSAYSLLGKLIDLKASSEEYNNRFVVIDSEAIGDQMQQLSLLFHESSQVLPFSKRETWVKRLAA	soluble on expression in E. coli	not soluble
GSDSSLFETYNVELVRKDGQSLGIRIVGYVGTSHTGEASGIYVKSVIPGSAAYHNGHIQVNDKIVAVDGVNIQGFANHDVVEVLRNAGQVVHLTLVRRKTSSSTSPLEPPSDRGTV	soluble on expression in E. coli	soluble
MAHHHHHHMDVSQFLKSFKKNVAAKSKRSSSVRQSDEAANSGAEEDVTEIFHSASDSEADGEAEDGEVILGGRADKMAGKRYTRNMDHSKRNREFAALKVVETNSVPAVEAGRFQRQRAALARQATDARKPPRTEMIASVRAELLRQREKLRGSNALDSANQLDASVQKMETTMIEVEDLLQASAPTAATSASVLDFLPAAPLPAPRQATLTTASRAASIAVALSEPQPPSSSVTNGRAGTPTVNDPALEEPPKLPKKRTKFELAMAMAHDEVAS	soluble on expression in E. coli	not soluble
SNAMADLLLGVNIDHIATLRNARGTIYPDPVQAAFIAEQAGADGITVHLREDRRHITDRDVRILRQTIQTRMNLEMAVTDEMVDIACDIKPHFCCLVPEKRQEVTTEGGLDVAGQVDKMTLAVGRLADVGILVSLFIDADFRQIDAAVAAGAPYIEIHTGAYADASTVLERQAELMRIAKAATYAAGKGLKVNAGHGLTYHNVQPIAALPEMHELNIGHAIIGQAVMTGLAAAVTDMKVLMREARR	soluble on expression in E. coli	soluble
MKMTSRKLSDILKKRLQNDSWSFHFDREKDSLRIEDKNTGKGITLELPGIIAKWEQKKDDAIDEVVYYTEEALNAMKGQSQEMEGRESLIYPVIRSTSFPEKSSAGVPLVFDGHTAETRIYYALDLGNTYRLIDEKMLEKEGWTKERIRETASFNLRSLQTVVKEDEVAGNHFYFFRANDGYDASRVLNESILAEYEKNAEGTLAVSIPHQDVLIIADIRNNAGYDILGQMSMSFFANGTVPITALSFLYEDGKLEPIFILAKNRPKK	soluble on expression in E. coli	not soluble

[Q] Requested read-out: soluble on expression in E. coli. Entry: `MATPASGALLQQMNLASQSLNYELSFISINKQGVESLRYRHARLDNRPLAQLLQMDGPRREVVQRGNEISYFEPGLEPFTLNGDYIVDSLPSLIYTDFKRLSPYYDFISVGRTRIADRLCEVIRVVARDGTRYSYIVWMDTESKLPMRVDLLDRDGETLEQFRVIAFNVNQDISSSMQTLAKANLPPLLSVPVGEKAKFSWTPTWLPQGFSEVSSSRRPLPTMDNMPIESRLYSDGLFSFSVNVNRATPSSTDQMLRTGRRTVSTSVRDNAEITIVGELPPQTAKRIAENIKFGAAQHHHHHH`
[A] soluble

[Q] Also need `MGSDKIHHHHHHMLFWSTVDLGLTFMATSSTLAFDSSNRIDDVKIVIKGYEFGPAVPKLVVKLNQKISKVSTKDLKVETAGVKRQIKKVYLSDKNSQKSTKKEGDYLTIQMPVTYNVDDSSKNASPFVYNTDVFQNQWVKTYPVSIKGLTVSYKGKSTNNLTSKSDAINKRVSPDSEVFTNRGSFSGNYTNPLTKKNEKVDLQYAAYEPKKLQSGNKNPLIIWLHGQGEGGTDPDITLLGNKVTALIKEDIQNHFKSGNQKGTYVLTVQAPTYWMDEGDGSNGQGAGTSRYTEVLMDAIKKYVAKIT` , thanks.
[A] not soluble

[Q] Also need `MYLQPKKVRWRKQRRGTLKGKAFRGNKLAFGEYGIQALDRAWITQQQIEAVRVALVRSLKKGAKVWIRIFPDKPYTKKPNEVRMGGGKGDPEGFVAVVKPGRILFEFTGVPEEVAQEAFTIAASKLPIPVRLVKYGEFTFKYLEHHHHHH` , thanks.
[A] not soluble

[Q] Also need `MGHHHHHHSHAADEEKAARGIAADRLIIGHVARFHEVKNHAFLLKLAAHLKERGIRFQLVLAGDGPLCGEIEEEARQQNLLSDVLFLGTEERIHELMRTFDVFVMPSLYEGLPVVLVEAQASGLPCIISDSITEKVDAGLGLVTRLSLSEPISVWAETIARAAAAGRPKREFIKETLAQ` , thanks.
[A] soluble
